Form field: post-emergence herbicidal activity index (one value per entry).
- Test system: Rice
- MEASUREMENT_PROTOCOL: Post-emergence herbicidal activity, greenhouse
- Assay type: in vivo
- TEST_CONDITIONS: Table II; 5.6 kg/h; 4 WAT

# count of solved cases: 4
# SMILES_STRING, post-emergence herbicidal activity index
measured = [
    ("CCCCCCCCSSN(CC(=O)OC)CP(=O)(Oc1ccccc1)Oc1ccccc1", "3 (75-99% control)"),
    ("COC(=O)CN(CP(=O)(Oc1ccccc1)Oc1ccccc1)SSC(C)C", "3 (75-99% control)"),
    ("COC(=O)CN(CP(=O)(Oc1ccccc1OC)Oc1ccccc1OC)SSc1cccc(C(F)(F)F)c1", "1 (25-49% control)"),
    ("O=C(CN(CP(=O)(Oc1ccccc1)Oc1ccccc1)SSCCc1ccccc1)OCc1ccccc1", "1 (25-49% control)"),
]

Now for another entry.
input: Recorded post-emergence herbicidal activity index for CCOC(=O)CN(CP(=O)(Oc1ccc(OC)cc1)Oc1ccc(OC)cc1)SSC , please?
output: 3 (75-99% control)

* * *

- System: Downy Brome
- MEASUREMENT_PROTOCOL: Post-emergence herbicidal activity, greenhouse
- Format: in vivo
- TEST_CONDITIONS: Table II; 5.6 kg/h; 4 WAT
Listing: post-emergence herbicidal activity index of selected compounds

# SMILES_STRING, post-emergence herbicidal activity index
measured = [
    ("O=C(CN(CP(=O)(Oc1ccccc1)Oc1ccccc1)SSCCc1ccccc1)OCc1ccccc1", "3 (75-99% control)"),
    ("CCOC(=O)CN(CP(=O)(Oc1ccc(OC)cc1)Oc1ccc(OC)cc1)SSC", "4 (100% control)"),
    ("COC(=O)CN(CP(=O)(Oc1ccccc1OC)Oc1ccccc1OC)SSc1cccc(C(F)(F)F)c1", "0 (0- 24% control)"),
]

input: Suppose we examine the compound COC(=O)CN(CP(=O)(Oc1ccccc1)Oc1ccccc1)SSC(C)C ; what post-emergence herbicidal activity index value has been reported?
output: 2 (50-74% control)

input: Give its post-emergence herbicidal activity index value. Item: CCCCCCCCSSN(CC(=O)OC)CP(=O)(Oc1ccccc1)Oc1ccccc1
output: 2 (50-74% control)

* * *

- System: Quackgrass
- MEASUREMENT_PROTOCOL: Post-emergence herbicidal activity, greenhouse
- Type: in vivo
- TEST_CONDITIONS: Table I; 5.6 kg/h; 4 WAT
Reported values of post-emergence herbicidal activity index for individual entries

Completed entries (count: 5):
# MOLECULE, ASSAYED_TARGET, post-emergence herbicidal activity index
records = [
    ("COC(=O)CN(CP(=O)(Oc1ccccc1)Oc1ccccc1)SSC(C)C [I]", "Quackgrass", "4 (100% control)"),
    ("CCOC(=O)CN(CP(=O)(Oc1ccc(OC)cc1)Oc1ccc(OC)cc1)SSC [VI]", "Quackgrass", "0 (0- 24% control)"),
    ("CCOC(=O)CN(CP(=O)(Oc1ccc(Cl)c(C)c1)Oc1ccc(Cl)c(C)c1)SSc1ccc(OC)cc1 [VII]", "Quackgrass", "1 (25-49% control)"),
    ("O=C(CN(CP(=O)(Oc1ccccc1)Oc1ccccc1)SSC1CCCCC1)OCc1ccccc1 [III]", "Quackgrass", "1 (25-49% control)"),
    ("O=C(CN(CP(=O)(Oc1ccccc1)Oc1ccccc1)SSCCc1ccccc1)OCc1ccccc1 [IV]", "Quackgrass", "2 (50-74% control)"),
]

input: Hi! What's the reported post-emergence herbicidal activity index for COC(=O)CN(CP(=O)(Oc1ccccc1OC)Oc1ccccc1OC)SSc1cccc(C(F)(F)F)c1 [V] on Quackgrass?
output: 1 (25-49% control)

input: Hi! What's the reported post-emergence herbicidal activity index for CCCCCCCCSSN(CC(=O)OC)CP(=O)(Oc1ccccc1)Oc1ccccc1 [II] on Quackgrass?
output: 3 (75-99% control)
